biological target: TLR7 (Homo sapiens (Human), UniProt Q9NYK1); assay: TLR7 human peripheral blood mononuclear cell (PBMC) cell-based assay (GS-986 as agonist; IL-6 and IFNα readout); details: human PBMCs, TLR7 agonist GS-986 at 400 nM, 6 hours, antagonist potency; read-out: TLR-7 EC50
Sequence (Q9NYK1 27-1049): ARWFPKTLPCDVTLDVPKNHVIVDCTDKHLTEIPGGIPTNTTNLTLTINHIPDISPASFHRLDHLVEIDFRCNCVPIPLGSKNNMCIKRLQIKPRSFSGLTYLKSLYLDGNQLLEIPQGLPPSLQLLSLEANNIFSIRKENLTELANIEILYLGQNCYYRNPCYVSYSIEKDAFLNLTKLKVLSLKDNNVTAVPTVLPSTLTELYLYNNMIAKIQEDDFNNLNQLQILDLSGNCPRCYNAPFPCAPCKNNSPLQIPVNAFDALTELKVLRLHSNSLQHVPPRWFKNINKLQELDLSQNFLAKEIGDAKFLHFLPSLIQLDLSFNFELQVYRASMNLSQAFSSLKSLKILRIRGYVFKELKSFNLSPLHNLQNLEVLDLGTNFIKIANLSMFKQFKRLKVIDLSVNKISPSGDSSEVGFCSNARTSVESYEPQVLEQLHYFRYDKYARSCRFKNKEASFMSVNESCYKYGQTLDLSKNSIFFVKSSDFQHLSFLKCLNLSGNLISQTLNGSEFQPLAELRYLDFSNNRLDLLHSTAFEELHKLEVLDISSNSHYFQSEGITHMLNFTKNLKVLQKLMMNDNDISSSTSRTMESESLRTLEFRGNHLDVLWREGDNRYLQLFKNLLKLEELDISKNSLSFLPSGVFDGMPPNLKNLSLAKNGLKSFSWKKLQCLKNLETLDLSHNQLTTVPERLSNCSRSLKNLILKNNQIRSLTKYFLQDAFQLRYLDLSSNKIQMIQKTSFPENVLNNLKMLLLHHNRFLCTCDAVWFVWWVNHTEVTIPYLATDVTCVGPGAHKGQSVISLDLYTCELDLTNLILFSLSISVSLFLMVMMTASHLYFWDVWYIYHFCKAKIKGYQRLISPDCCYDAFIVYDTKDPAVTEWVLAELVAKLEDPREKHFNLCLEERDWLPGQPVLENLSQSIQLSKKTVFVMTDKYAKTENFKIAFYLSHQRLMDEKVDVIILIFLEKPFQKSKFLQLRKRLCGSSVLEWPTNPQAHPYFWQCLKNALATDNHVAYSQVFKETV
In this section, each of the compounds is paired with its reported EC50.

compound: Cc1c(-c2[nH]c3sc([C@@H]4C[C@@H]5C[C@H]4CN5CCS(N)(=O)=O)c(C)c3c2C(C)C)cn2ncnc2c1C [Example 180]
EC50: < 0.05 nM

compound: Cc1c(-c2[nH]c3sc(C4CCC(N5CC(C)(O)C5)CC4)c(C)c3c2C(C)C)cn2ncnc2c1C (stereo not drawn) [Example 304]
EC50: < 0.05 nM

Shift focus to the following entry.
Briefly, EC50 measured for Cc1c(-c2[nH]c3sc([C@@H]4C[C@@H]5C[C@H]4CN5Cc4cn(C)nn4)c(C)c3c2C(C)C)cn2ncnc2c1C [Example 175] : < 0.05 nM

----------
biological target: TLR8 (Homo sapiens (Human)); assay: TLR8 human peripheral blood mononuclear cell (PBMC) cell-based assay (Compound A as agonist; TNFα and IL12p40 readout); settings: human PBMCs, TLR8 agonist Compound A at 800 nM, 6 hours, antagonist potency; read-out: TLR-8 EC50
Sequence (Q9NR97 27-1041): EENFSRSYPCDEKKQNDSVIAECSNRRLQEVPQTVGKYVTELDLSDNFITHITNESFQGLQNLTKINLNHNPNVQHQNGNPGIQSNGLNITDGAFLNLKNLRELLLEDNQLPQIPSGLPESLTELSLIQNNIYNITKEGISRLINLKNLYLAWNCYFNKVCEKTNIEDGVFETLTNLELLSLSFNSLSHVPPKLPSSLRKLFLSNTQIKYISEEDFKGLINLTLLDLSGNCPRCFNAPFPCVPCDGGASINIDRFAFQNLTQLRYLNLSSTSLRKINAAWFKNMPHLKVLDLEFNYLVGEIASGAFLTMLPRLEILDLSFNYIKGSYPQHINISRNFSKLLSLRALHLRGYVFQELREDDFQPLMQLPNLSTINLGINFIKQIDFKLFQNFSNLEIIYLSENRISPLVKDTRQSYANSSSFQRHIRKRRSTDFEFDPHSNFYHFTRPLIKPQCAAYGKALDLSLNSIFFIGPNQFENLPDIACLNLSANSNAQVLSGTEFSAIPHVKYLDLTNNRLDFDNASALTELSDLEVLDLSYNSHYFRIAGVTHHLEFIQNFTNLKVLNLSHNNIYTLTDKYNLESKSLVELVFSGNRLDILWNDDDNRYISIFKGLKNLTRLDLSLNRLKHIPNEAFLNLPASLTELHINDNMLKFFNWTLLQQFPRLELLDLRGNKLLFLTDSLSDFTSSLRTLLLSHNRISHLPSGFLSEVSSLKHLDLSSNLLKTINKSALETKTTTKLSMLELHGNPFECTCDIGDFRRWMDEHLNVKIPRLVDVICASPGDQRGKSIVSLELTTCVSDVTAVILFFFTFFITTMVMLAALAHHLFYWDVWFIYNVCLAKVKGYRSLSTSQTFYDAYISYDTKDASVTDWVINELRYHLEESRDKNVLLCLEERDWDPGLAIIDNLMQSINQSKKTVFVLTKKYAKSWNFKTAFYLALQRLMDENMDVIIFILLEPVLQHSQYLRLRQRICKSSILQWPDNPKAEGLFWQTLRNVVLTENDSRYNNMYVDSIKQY
measurement label: EC50 (nM)

a = Cc1c(CCC2CCN(CC(N)=O)CC2)sc2[nH]c(-c3cc(C)c4ncnn4c3)c(C(C)C)c12 [Example 203]
b = Cc1c(-c2[nH]c3sc([C@@H]4C[C@@H]5C[C@H]4CN5C(CO)CO)c(C)c3c2C(C)C)cn2ncnc2c1C [Example 308]
Between the entries labelled a and b , which has a larger EC50 value on record? // caller expects the label of the chosen entry
a

A = Cc1c(-c2[nH]c3sc(C4CC5(CC(N)C5)C4)c(C)c3c2C(C)C)cn2ncnc2c1C (centres unmarked) [Example 187]
B = Cc1nc2c(C)cc(-c3[nH]c4sc(C5CCN(CC(N)=O)CC5)c(C)c4c3C(C)C)cn2n1 [Example 134]
C = Cc1c(-c2[nH]c3sc([C@@H]4C[C@@H]5C[C@H]4CN5C(C)C(N)=O)c(C)c3c2C(C)C)cn2ncnc2c1C (single isomer, unassigned) [Example 100]
// ascending sort on recorded EC50 Answer by naming the labels in the order asked.
C, A, B

a = Cc1c(-c2[nH]c3sc([C@@H]4C[C@@H]5C[C@H]4CN5CCS(C)(=O)=O)cc3c2C(C)C)cn2ncnc2c1C [Example 218]
b = Cc1cc(-c2[nH]c3sc([C@H]4C[C@@]5(CCNC5)C4)c(C)c3c2C(C)C)cn2ncnc12 [Example 125]
Lower EC50: a or b ? // caller expects the label of the chosen entry
a
(a: 0.88 nM, b: 1.5 nM)

----------
molecular target: TLR7 (Homo sapiens (Human)); experiment: TLR7 human peripheral blood mononuclear cell (PBMC) cell-based assay (GS-986 as agonist; IL-6 and IFNα readout); settings: human PBMCs, TLR7 agonist GS-986 at 400 nM, 6 hours, antagonist potency; read-out: TLR-7 EC50
measurement label: EC50 (nM)

compound: Cc1c(-c2[nH]c3sc(C4CCC45CN(CC(N)=O)C5)c(C)c3c2C(C)C)cn2ncnc2c1C (single isomer, unassigned) [Example 315]
unit abbrev: nM
value observed: 28.2

compound: Cc1c(-c2[nH]c3sc(-c4ccc(C5CCN(CC(N)=O)CC5)cc4)c(C)c3c2C(C)C)cn2ncnc2c1C [Example 113]
unit abbrev: nM
value observed: 0.54

compound: Cc1cc(-c2[nH]c3sc(C(=O)N4CCNCC4)cc3c2C(C)C)cn2ncnc12 [Example 2]
unit abbrev: nM
value observed: 1.04

compound: Cc1c(C2C[C@H]3CNC[C@H]3C2)sc2[nH]c(-c3cc(C)c4ncnn4c3)c(C(C)C)c12 (single isomer, unassigned) [Example 69]
unit abbrev: nM
value observed: 0.05

compound: Cc1c(C2CCN(C(=O)CN(C)C)CC2)sc2[nH]c(-c3cc(C)c4ncnn4c3)c(C(C)C)c12 [Example 10]
unit abbrev: nM
value observed: 0.18

P = Cc1c(-c2[nH]c3sc([C@@H]4C[C@@H]5C[C@H]4CN5)c(C)c3c2C(C)C)cn2ncnc2c1C [Example 72]
Q = Cc1c(C2CCC3(CCN(CC(N)=O)CC3)C2)sc2[nH]c(-c3cc(C)c4ncnn4c3)c(C(C)C)c12 (stereo not drawn) [Example 133]
R = Cc1c(-c2[nH]c3sc([C@@H]4C[C@@H]5C[C@H]4CN5CC(N)=O)cc3c2C(C)C)cn2ncnc2c1C [Example 97]
S = Cc1c(C2CCNCC2)sc2[nH]c(-c3ccc(C#N)c4ncccc34)c(C(C)C)c12 [Example 247]
T = Cc1c([C@H]2C[C@H]3CC[C@@H]2CN3CC(N)=O)sc2[nH]c(-c3cc(C)c4ncnn4c3)c(C(C)C)c12 (single isomer, unassigned) [Example 190]
// ascending sort on recorded EC50 Answer by naming the labels in the order asked.
P, S, R, Q, T
(P: 0.1 nM, S: 0.2 nM, R: 0.31 nM, Q: 0.6 nM, T: 3.52 nM)

P = Cc1c(C2CC3(CCCN3)C2)sc2[nH]c(-c3cc(C)c4ncnn4c3)c(C(C)C)c12 (stereo not drawn) [Example 138]
Q = Cc1c(-c2[nH]c3sc(C45CCN(CC(N)=O)CC4C5)c(C)c3c2C(C)C)cn2ncnc2c1C (single isomer, unassigned) [Example 103]
Between the entries labelled P and Q , which has a larger EC50 value on record? // caller expects the label of the chosen entry
Q
(Q: 0.91 nM, P: 0.19 nM)
